Recorded pIC50, one value per entry.
- Assayed target: NLRP3 (Homo sapiens, UniProt Q96P20)
- Sequence (Q96P20 whole entry): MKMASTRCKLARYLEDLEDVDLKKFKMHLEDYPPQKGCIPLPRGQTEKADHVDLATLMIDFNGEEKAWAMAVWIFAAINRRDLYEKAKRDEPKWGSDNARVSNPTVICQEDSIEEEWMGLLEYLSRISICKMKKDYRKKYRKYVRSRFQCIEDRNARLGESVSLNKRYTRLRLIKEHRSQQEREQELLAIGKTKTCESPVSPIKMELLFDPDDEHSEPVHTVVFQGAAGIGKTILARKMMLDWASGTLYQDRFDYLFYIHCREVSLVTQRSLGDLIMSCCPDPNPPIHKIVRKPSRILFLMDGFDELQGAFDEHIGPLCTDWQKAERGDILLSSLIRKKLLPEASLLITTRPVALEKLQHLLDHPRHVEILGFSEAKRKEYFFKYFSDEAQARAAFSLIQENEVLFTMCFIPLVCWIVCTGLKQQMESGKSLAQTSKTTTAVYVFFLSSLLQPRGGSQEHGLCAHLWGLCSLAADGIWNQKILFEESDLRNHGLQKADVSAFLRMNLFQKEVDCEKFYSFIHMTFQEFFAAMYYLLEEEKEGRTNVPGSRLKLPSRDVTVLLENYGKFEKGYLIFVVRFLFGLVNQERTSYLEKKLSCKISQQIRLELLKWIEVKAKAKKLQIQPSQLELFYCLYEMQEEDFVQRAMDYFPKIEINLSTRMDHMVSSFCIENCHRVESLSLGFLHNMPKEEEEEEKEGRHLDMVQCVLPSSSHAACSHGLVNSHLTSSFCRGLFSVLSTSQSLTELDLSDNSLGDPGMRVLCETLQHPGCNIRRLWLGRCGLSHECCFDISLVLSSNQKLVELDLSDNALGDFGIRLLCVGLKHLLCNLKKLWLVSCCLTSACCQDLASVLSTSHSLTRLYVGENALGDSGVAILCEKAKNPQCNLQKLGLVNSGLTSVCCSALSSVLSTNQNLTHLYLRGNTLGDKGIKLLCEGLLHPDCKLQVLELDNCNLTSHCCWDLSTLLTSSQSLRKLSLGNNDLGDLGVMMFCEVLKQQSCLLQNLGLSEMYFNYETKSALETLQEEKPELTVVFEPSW
- Method notes: Human whole blood IL-1β release assay
- Assay type: cell-based
- Parameters: Human whole blood in Li-heparin tubes was obtained from healthy donors; from tissue; host or cells: human whole blood from healthy donors, LPS-primed, nigericin-stimulated
- Condition summary: 1 μg/ml LPS, nigericin 10 μM, IL-1β by AlphaLisa
// pIC50: -log10(molar conc.)

Below, each entry is followed by its recorded pIC50 result.
| Molecule | Obs value |
| --- | --- |
| CN1C2CCC(Nc3nnc(-c4ccc(C(F)(F)F)cc4O)n(C)c3=O)C1CC2 (stereo not drawn) | 6.92 |
| CCN1CCC[C@@H](Nc2nnc(-c3c(C)cc(C(F)(F)F)cc3O)n(C)c2=O)C1 | 7.51 |
| CCN1CCC[C@@H](Nc2nnc(-c3ccc(C(F)(F)F)cc3O)n(CC)c2=O)C1 | 7.32 |

# input Given Cn1c(-c2ccc(C(F)(F)F)cc2O)nnc(N[C@H]2C[C@@](C)(O)C2)c1=O , state its recorded pIC50.
# output 6.72

# input # lookup: pIC50 of Cn1c(-c2ccc(C(F)(F)F)cc2O)nnc(N[C@@H]2CCCN(C3CC3)C2)c1=O
# output 6.77

# input Reported pIC50, molecule Cn1c(-c2ccc(C(F)(F)F)cc2O)nnc(N[C@@H]2CCCN(CC3CC3)C2)c1=O : ____
# output 7.04

# input May I ask what pIC50 has been recorded for CCCN1CCC[C@@H](Nc2nnc(-c3ccc(C(F)(F)F)cc3O)n(C)c2=O)C1 ?
# output 7.49

# input Looking for the measured pIC50 of CCN1CCC[C@@H](Nc2nnc(-c3ccc(C(F)(F)F)cc3O)n(C)c2=O)C1 , can you help?
# output 8.02

# input I have this molecule here, CCN1CCC[C@@H](Nc2nnc(-c3ccc(F)cc3O)n(C)c2=O)C1 , and I need its recorded pIC50.
# output 7.55

# input Fill in the blank: the reported pIC50 of Cn1c(-c2ccc(C(F)(F)F)cc2O)nnc(NCc2cccc(O)c2)c1=O is ____.
# output 8.09

# input Recorded pIC50 for CCN1CCC[C@@H](Nc2nnc(-c3ccc(C(C)=O)cc3O)n(C)c2=O)C1 , please?
# output 7.82

# input I am curious: what pIC50 value has been reported for CCN1CCCC(Nc2nnc(-c3ccc(C(F)(F)F)cc3O)n(C)c2=O)C1 (stereo not drawn) ?
# output 7.46

# input What value of pIC50 has been recorded for this entry: Cn1c(-c2ccc(C(F)(F)F)cc2O)nnc(NC2CCCN3CCCC23)c1=O (stereo not drawn)
# output 7.07

###

- Assayed target: UniProtKB Q96P20
- Method notes: THP-1 cells pyroptosis assay
- Format: cell-based
- Design: Seed THP-1 cells (25,000 cells/well) containing 1.0 μg/ml LPS; host or cells: THP-1 cells, LPS-primed, nigericin-stimulated
- Condition summary: 1.0 μg/ml LPS, nigericin 5 μM, resazurin readout
Property label: IC50 (nM)
Respond with the bare value in nM.

# input Would you kindly share the measured IC50 for CN1CC(Nc2nnc(-c3ccc(C(F)(F)F)cc3O)n(C)c2=O)C[C@H](F)C1 (stereo partly shown) ?
# output 860

###

- Assayed target: NLRP3 (Homo sapiens)
- Method notes: THP-1 cells pyroptosis assay
- Assay type: cell-based
- Set-up: Seed THP-1 cells (25,000 cells/well) containing 1.0 μg/ml LPS; host or cells: THP-1 cells, LPS-primed, nigericin-stimulated
- Condition summary: 1.0 μg/ml LPS, nigericin 5 μM, resazurin readout
Property label: pIC50
Please report pIC50 as the negative decimal logarithm of the molar concentration, giving only the number.

Take a look at these entries with their results.
| Compound | Property label | Obs value |
| --- | --- | --- |
| CN1CCC[C@@H](Nc2nnc(-c3ccc(OC(F)(F)F)cc3O)n(C)c2=O)C1 | pIC50 | 7.88 |
| CCN1CCC[C@@H](Nc2nnc(-c3ccc(C(F)(F)F)cc3O)n(C3CC3)c2=O)C1 | pIC50 | 6.14 |
| CCN1CCCC(Nc2nnc(-c3ccc(C(F)(F)F)cc3O)n(C)c2=O)C1 (stereo not shown) | pIC50 | 7.36 |

# input Quick check: pIC50 of Cn1c(-c2ccc(C(F)(F)F)cc2O)nnc(NCc2cccc(O)c2)c1=O ?
# output 8.92

# input What does the record list as pIC50 for CCN1CCC[C@@H](Nc2nnc(-c3c(C)cc(C(F)(F)F)cc3O)n(C)c2=O)C1 (single isomer, unassigned) [Example 30] ?
# output 6.12

# input // lookup pIC50 for CCN1CCC[C@@H](Nc2nnc(-c3ccc(C#N)cc3O)n(C)c2=O)C1
# output 6.09

# input // query pIC50 value for entry CCN1CCC[C@@H](Nc2nnc(-c3ccc(OC(F)F)cc3O)n(C)c2=O)C1
# output 8.09

# input For Cn1c(-c2ccc(C(F)(F)F)cc2O)nnc(N[C@@H]2CCCN(CC3CC3)C2)c1=O , what is its reported pIC50?
# output 7.06

# input Give the measured pIC50 of Cn1c(-c2ccc(C(F)(F)F)cc2O)nnc(N[C@@H]2CCCN(C3CC3)C2)c1=O .
# output 7.41

# input Name the recorded pIC50 for CN1C2CCC(Nc3nnc(-c4ccc(C(F)(F)F)cc4O)n(C)c3=O)C1CC2 (stereo not shown) .
# output 7.02

# input Give its pIC50 value. Item: Cn1c(-c2ccc(C(F)(F)F)cc2O)nnc(N[C@@H]2CCC(C)(C)NC2)c1=O
# output 6.17

# input // query pIC50 value for entry CCN1CCC[C@@H](Nc2nnc(-c3ccc(C(F)(F)F)cc3O)n(C)c2=O)C1
# output 8.00

# input For CCN1CCC[C@@H](Nc2nnc(-c3ccc(C(C)(F)F)cc3O)n(C)c2=O)C1 , what is its reported pIC50?
# output 6.97

# input State the recorded pIC50 for this entry: Cn1c(-c2ccc(C(F)(F)F)cc2O)nnc(N[C@H]2C[C@@](C)(O)C2)c1=O
# output 6.41
